- Test system: MDCK cells
reported_endpoint: CC50

compound	result_value
O=C(O[C@@H]1Cc2c(O)cc(O)cc2O[C@@H]1c1cc(O)c(O)c(O)c1-c1c([C@H]2Oc3cc(O)cc(O)c3C[C@H]2OC(=O)c2cc(O)c(O)c(O)c2)cc(O)c(O)c1O)c1cc(O)c(O)c(O)c1 [2′2′-Bisepigallocatechin digallate]	> 50 µM

---

- System: influenza neuraminidase (NA), inactivated viral suspensions of influenza A/Udorn/72 (H3N2)
- Format: biochemical
Each entry below carries its reported NA activity inhibition at 50 μM (%).
reported_endpoint: NA activity inhibition at 50 μM (%)

In [3]: df
Out[3]:
                    structure_smiles_string                    reported_endpoint  result_value
0        CCOC(=O)C1=C(O)C(=O)N(Cc2ccccc2)C1  NA activity inhibition at 50 μM (%)         71.9%
1         O=C(/C=C/c1ccc(O)cc1)c1ccc(O)cc1O  NA activity inhibition at 50 μM (%)         62.6%
2  Cc1cc(=O)c2c(o1)-c1c(cc(O)c(O)c1C(=O)O)OC2  NA activity inhibition at 50 μM (%)         46.8%
3            N#Cc1c(Cl)c(Cl)c(Cl)c(C#N)c1Cl  NA activity inhibition at 50 μM (%)         76.9%
4  Cc1cnc(NC(=O)C2=C(O)c3ccccc3S(=O)(=O)N2C)s1  NA activity inhibition at 50 μM (%)         62.1%
